Data origin, for the record: patent US9120805B2

Assign IC50 to each entry below.

Observed IC50 on GST-tagged Tankyrase-2 (873-1166 aa) (Homo sapiens), entry COCCn1cc(-c2ccc(-c3cn4cccc4c(=O)[nH]3)cc2)cn1 [Compound A26] , equals < 300 nM

Observed IC50 on GST-tagged Tankyrase-2 (873-1166 aa) (Homo sapiens), entry O=c1[nH]c(-c2ccc(-c3cnn(CCN4CCCC4)c3)cc2)cn2cccc12 [Compound A27] , equals < 300 nM

Observed IC50 on GST-tagged Tankyrase-2 (873-1166 aa) (Homo sapiens), entry CC(C)(C)c1ccc(-c2cn3nc(CO)cc3c(=O)[nH]2)cc1 [Compound A18] , equals 300 to 3000 nM

Observed IC50 on GST-tagged Tankyrase-2 (873-1166 aa) (Homo sapiens), entry Cc1ccc2c(=O)[nH]c(-c3ccc(Br)cc3)cn12 [Compound A94] , equals 300 to 3000 nM

Observed IC50 on GST-tagged Tankyrase-2 (873-1166 aa) (Homo sapiens), entry COc1ccc(-c2cn3cccc3c(=O)[nH]2)cc1 [Compound A7] , equals 300 to 3000 nM

Observed IC50 on GST-tagged Tankyrase-2 (873-1166 aa) (Homo sapiens), entry CC(C)(O)c1ccc(-c2cn3cc(F)cc3c(=O)[nH]2)cc1 [Compound A59] , equals < 300 nM

Observed IC50 on GST-tagged Tankyrase-2 (873-1166 aa) (Homo sapiens), entry O=c1[nH]c(-c2ccc(C(F)(F)F)cc2)cn2cccc12 [Compound A13] , equals < 300 nM

Observed IC50 on GST-tagged Tankyrase-2 (873-1166 aa) (Homo sapiens), entry CC(C)(C)c1ccc(-c2cn3nccc3c(=O)[nH]2)cc1 [Compound A15] , equals < 300 nM

Observed IC50 on GST-tagged Tankyrase-2 (873-1166 aa) (Homo sapiens), entry CC(C)(C)c1ccc(-c2cn3cc(F)cc3c(=O)[nH]2)cc1 [Compound A35] , equals < 300 nM

Observed IC50 on GST-tagged Tankyrase-2 (873-1166 aa) (Homo sapiens), entry Cc1cc2c(=O)[nH]c(-c3ccc(-c4cnn(C)c4)cc3)cn2c1 [Compound A91] , equals 300 to 3000 nM

Observed IC50 on GST-tagged Tankyrase-2 (873-1166 aa) (Homo sapiens), entry CC(C)(C)c1ccc(-c2cn3cccc3c(=O)[nH]2)cc1 [Compound A11] , equals < 300 nM

Observed IC50 on GST-tagged Tankyrase-2 (873-1166 aa) (Homo sapiens), entry CC(C)(N)c1ccc(-c2cn3cc(F)cc3c(=O)[nH]2)cc1 [Compound A72] , equals < 300 nM

Observed IC50 on GST-tagged Tankyrase-2 (873-1166 aa) (Homo sapiens), entry O=c1[nH]c(-c2ccc(C3(O)CCC3)cc2)cn2cccc12 [Compound A111] , equals < 300 nM

Observed IC50 on GST-tagged Tankyrase-2 (873-1166 aa) (Homo sapiens), entry O=c1[nH]c(-c2cccc(Cl)c2)cn2cccc12 [Compound A3] , equals 300 to 3000 nM

Observed IC50 on GST-tagged Tankyrase-2 (873-1166 aa) (Homo sapiens), entry C=C(CCCO)c1ccc(-c2cn3cc(F)cc3c(=O)[nH]2)cc1 (single isomer, unassigned) [Compound A74] , equals 300 to 3000 nM

Observed IC50 on GST-tagged Tankyrase-2 (873-1166 aa) (Homo sapiens), entry CN1CCC(c2ccc(-c3cn4cc(Cl)cc4c(=O)[nH]3)cc2)CC1 [Compound A82] , equals 300 to 3000 nM

Observed IC50 on GST-tagged Tankyrase-2 (873-1166 aa) (Homo sapiens), entry CC(C)Oc1ccc(-c2cn3nc(CO)cc3c(=O)[nH]2)cc1 [Compound A20] , equals 3000 to 50000 nM

Observed IC50 on GST-tagged Tankyrase-2 (873-1166 aa) (Homo sapiens), entry CC(C)(O)c1ccc(-c2cn3cc(Cl)cc3c(=O)[nH]2)cc1 [Compound A60] , equals < 300 nM

---

pIC50: −log10 of the molar value. Where a name gives a salt, the structure may show the parent alone.
Assign pIC50 to each entry below.

Observed pIC50 on GST-tagged Tankyrase-1 (1023-1327 aa) (Homo sapiens, UniProt O95271), entry CN1CCC(c2ccc(-c3cn4cccc4c(=O)[nH]3)cc2)CC1 [Compound A79] , equals > 6.52

Observed pIC50 on GST-tagged Tankyrase-1 (1023-1327 aa) (Homo sapiens, UniProt O95271), entry CCC(O)(CC)c1ccc(-c2cn3cc(F)cc3c(=O)[nH]2)cc1 [Compound A61] , equals > 6.52

Observed pIC50 on GST-tagged Tankyrase-1 (1023-1327 aa) (Homo sapiens, UniProt O95271), entry COCCOC(C)(C)c1ccc(-c2cn3cc(F)cc3c(=O)[nH]2)cc1 [Compound A71] , equals > 6.52

Observed pIC50 on GST-tagged Tankyrase-1 (1023-1327 aa) (Homo sapiens, UniProt O95271), entry Cc1ccc(-c2cn3cccc3c(=O)[nH]2)cc1 [Compound A12, 3-p-tolyl-2H-pyrrolo[1,2-a]pyrazin-1-one] , equals > 6.52

Observed pIC50 on GST-tagged Tankyrase-1 (1023-1327 aa) (Homo sapiens, UniProt O95271), entry CC(C)(C)c1ccc(-c2cn3cc(C#N)cc3c(=O)[nH]2)cc1 [Compound A92] , equals > 6.52

Observed pIC50 on GST-tagged Tankyrase-1 (1023-1327 aa) (Homo sapiens, UniProt O95271), entry C=C(CCCO)c1ccc(-c2cn3cc(F)cc3c(=O)[nH]2)cc1 (single isomer, unassigned) [Compound A74] , equals > 6.52

Observed pIC50 on GST-tagged Tankyrase-1 (1023-1327 aa) (Homo sapiens, UniProt O95271), entry O=c1[nH]c(-c2ccc(Br)cc2)cn2cccc12 [Compound A24] , equals > 6.52

Observed pIC50 on GST-tagged Tankyrase-1 (1023-1327 aa) (Homo sapiens, UniProt O95271), entry Cc1cc2c(=O)[nH]c(-c3ccc(N4CCCC4)cc3)cn2n1 [Compound A37] , equals > 6.52

Observed pIC50 on GST-tagged Tankyrase-1 (1023-1327 aa) (Homo sapiens, UniProt O95271), entry CC(C)n1cc(-c2cn3nc(CO)cc3c(=O)[nH]2)cn1 [Compound A22] , equals 4.30 to 5.52

Observed pIC50 on GST-tagged Tankyrase-1 (1023-1327 aa) (Homo sapiens, UniProt O95271), entry CN1CCC(c2ccc(-c3cn4cc(F)cc4c(=O)[nH]3)cc2)CC1 [Compound A81] , equals > 6.52

Observed pIC50 on GST-tagged Tankyrase-1 (1023-1327 aa) (Homo sapiens, UniProt O95271), entry Cn1cc(-c2ccc(-c3cn4cc(F)cc4c(=O)[nH]3)cc2)cn1 [Compound A90] , equals > 6.52

Observed pIC50 on GST-tagged Tankyrase-1 (1023-1327 aa) (Homo sapiens, UniProt O95271), entry CC(C)(C)c1ccc(-c2cn3nc(C(F)F)cc3c(=O)[nH]2)cc1 [Compound A66] , equals > 6.52

Observed pIC50 on GST-tagged Tankyrase-1 (1023-1327 aa) (Homo sapiens, UniProt O95271), entry Cc1cc2c(=O)[nH]c(-c3ccc(C(C)(C)O)cc3)cn2n1 [Compound A46] , equals > 6.52

Observed pIC50 on GST-tagged Tankyrase-1 (1023-1327 aa) (Homo sapiens, UniProt O95271), entry O=c1[nH]c(-c2ccc(C(F)(F)F)cc2)cn2cccc12 [Compound A13] , equals 5.52 to 6.52

Observed pIC50 on GST-tagged Tankyrase-1 (1023-1327 aa) (Homo sapiens, UniProt O95271), entry CC1(C)CCC(C)(C)c2cc(-c3cn4cccc4c(=O)[nH]3)ccc21 [Compound A5] , equals 4.30 to 5.52

Observed pIC50 on GST-tagged Tankyrase-1 (1023-1327 aa) (Homo sapiens, UniProt O95271), entry O=c1[nH]c(-c2ccc(-c3cnn(CCOC4CCCCO4)c3)cc2)cn2cccc12 (stereo not drawn) [Compound A31] , equals > 6.52

Observed pIC50 on GST-tagged Tankyrase-1 (1023-1327 aa) (Homo sapiens, UniProt O95271), entry CC(C)(C)c1ccc(-c2cn3cc(F)cc3c(=O)[nH]2)cc1 [Compound A35] , equals > 6.52

Observed pIC50 on GST-tagged Tankyrase-1 (1023-1327 aa) (Homo sapiens, UniProt O95271), entry O=c1[nH]c(-c2ccc(F)cc2)cn2cccc12 [Compound A10] , equals 5.52 to 6.52

Observed pIC50 on GST-tagged Tankyrase-1 (1023-1327 aa) (Homo sapiens, UniProt O95271), entry COCCn1cc(-c2ccc(-c3cn4cccc4c(=O)[nH]3)cc2)cn1 [Compound A26] , equals > 6.52

Observed pIC50 on GST-tagged Tankyrase-1 (1023-1327 aa) (Homo sapiens, UniProt O95271), entry CC(C)(O)c1ccc(-c2cn3nc(C(F)(F)F)cc3c(=O)[nH]2)cc1 [Compound A69] , equals 5.52 to 6.52

Observed pIC50 on GST-tagged Tankyrase-1 (1023-1327 aa) (Homo sapiens, UniProt O95271), entry CC(C)(N)c1ccc(-c2cn3cc(F)cc3c(=O)[nH]2)cc1 [Compound A72] , equals > 6.52

Observed pIC50 on GST-tagged Tankyrase-1 (1023-1327 aa) (Homo sapiens, UniProt O95271), entry COC(=O)c1ccc(-c2cn3cccc3c(=O)[nH]2)cc1 [Compound A28] , equals > 6.52

Observed pIC50 on GST-tagged Tankyrase-1 (1023-1327 aa) (Homo sapiens, UniProt O95271), entry O=c1[nH]c(-c2ccc(C3(O)CNC3)cc2)cn2cccc12 [Compound A86, hydrochloride] , equals 5.52 to 6.52

Observed pIC50 on GST-tagged Tankyrase-1 (1023-1327 aa) (Homo sapiens, UniProt O95271), entry O=c1[nH]c(-c2ccc([N+](=O)[O-])cc2)cn2cccc12 [Compound A6] , equals > 6.52

Observed pIC50 on GST-tagged Tankyrase-1 (1023-1327 aa) (Homo sapiens, UniProt O95271), entry O=c1[nH]c(-c2ccccc2)cn2cccc12 [Compound A2, 3-phenyl-2H-pyrrolo[1,2-a]pyrazin-1-one] , equals 5.52 to 6.52

Observed pIC50 on GST-tagged Tankyrase-1 (1023-1327 aa) (Homo sapiens, UniProt O95271), entry O=c1[nH]c(-c2ccc(-c3cnn(CCN4CCCC4)c3)cc2)cn2cccc12 [Compound A27] , equals > 6.52

Observed pIC50 on GST-tagged Tankyrase-1 (1023-1327 aa) (Homo sapiens, UniProt O95271), entry O=c1[nH]c(-c2cccc(Cl)c2)cn2cccc12 [Compound A3] , equals 5.52 to 6.52

Observed pIC50 on GST-tagged Tankyrase-1 (1023-1327 aa) (Homo sapiens, UniProt O95271), entry Cc1cc2c(=O)[nH]c(-c3ccc(OC(F)(F)F)cc3)cn2n1 [Compound A34] , equals > 6.52

Observed pIC50 on GST-tagged Tankyrase-1 (1023-1327 aa) (Homo sapiens, UniProt O95271), entry CC(C)(O)c1ccc(-c2cn3cc(F)cc3c(=O)[nH]2)cc1 [Compound A59] , equals > 6.52

Observed pIC50 on GST-tagged Tankyrase-1 (1023-1327 aa) (Homo sapiens, UniProt O95271), entry CC(C)(C)c1ccc(-c2cn3nc(CO)cc3c(=O)[nH]2)cc1 [Compound A18] , equals > 6.52

Observed pIC50 on GST-tagged Tankyrase-1 (1023-1327 aa) (Homo sapiens, UniProt O95271), entry CC1(c2ccc(-c3cn4cc(F)cc4c(=O)[nH]3)cc2)CCCO1 (stereo not drawn) [Compound A73] , equals > 6.52

Observed pIC50 on GST-tagged Tankyrase-1 (1023-1327 aa) (Homo sapiens, UniProt O95271), entry Cc1cc2c(=O)[nH]c(-c3ccc(C(C)(C)C)cc3)cn2n1 [Compound A30] , equals > 6.52

Observed pIC50 on GST-tagged Tankyrase-1 (1023-1327 aa) (Homo sapiens, UniProt O95271), entry O=c1[nH]c(-c2ccc(-c3cnn(CCO)c3)cc2)cn2cccc12 [Compound A32] , equals > 6.52

Observed pIC50 on GST-tagged Tankyrase-1 (1023-1327 aa) (Homo sapiens, UniProt O95271), entry O=c1[nH]c(-c2ccc(C3CCNCC3)cc2)cn2cc(F)cc12 [Compound A77] , equals > 6.52

Observed pIC50 on GST-tagged Tankyrase-1 (1023-1327 aa) (Homo sapiens, UniProt O95271), entry CC(C)(O)c1ccc(-c2cn3cccc3c(=O)[nH]2)cc1 [Compound A29] , equals > 6.52

Observed pIC50 on GST-tagged Tankyrase-1 (1023-1327 aa) (Homo sapiens, UniProt O95271), entry Cc1cc2c(=O)[nH]c(-c3cnn(C(C)(C)C)c3)cn2n1 [Compound A52] , equals 5.52 to 6.52
